# Target Under Test: T1, recombinant human IL-6 (human, UniProt P05231 30-212)
# T1 construct: Bought from R&D Systems (206-IL-010); Biotinylated or coupled to beads in some assays; also called hIL-6; rhIL-6
# T1 sequence (P05231 30-212 limits assumed): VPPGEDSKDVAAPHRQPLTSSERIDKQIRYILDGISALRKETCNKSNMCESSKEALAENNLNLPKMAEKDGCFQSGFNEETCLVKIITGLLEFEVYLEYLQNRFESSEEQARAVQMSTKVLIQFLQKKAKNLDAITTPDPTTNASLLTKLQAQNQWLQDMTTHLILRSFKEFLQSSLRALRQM
# Test Details: KinExA 3000
Recorded measurements of Improvement Ratio of kon (against chimeric antibody), one per entry
Property Measured: Improvement Ratio of kon (against chimeric antibody) (fold)

{"Binder": "AME-20b (antibody, V domains shown, Tested as IgG; also called 140) VH: EVQLVESGGGLVQPGGSLRLSCAASGFQFSSFAMSWVRQAPGKGLEWVAKISPGGSYTYYSDTVTGRFTISRDNAKNSLYLQMNSLRAEDTAVYYCARQLWGYYALDIWGQGTTVTVSS VL: EIVLTQSPATLSLSPGERATLSCSASISVSYMYWYQQKPGQAPRLLIYDMSNLASGIPARFSGSGSGTDFTLTISSLEPEDFAVYYCMQWSGYPYTFGGGTKVEIK", "Value Units": "fold", "Recorded Result": 1}
{"Binder": "AME-16 (antibody, V domains shown, Tested as IgG; also called AME-A16; 106) VH: EVQLVESGGGLVQPGGSLRLSCAASGFTFSSFAMSWVRQAPGKGLEWVAKISPGGSYTYYPDTVTGRFTISRDNAKNSLYLQMNSLRAEDTAVYYCARQLWGYYALDYWGQGTTVTVSS VL: EIVLTQSPATLSLSPGERATLSCSASSSVSYMYWYQQKPGQAPRLLIYDTSNLASGIPARFSGSGSGTDFTLTISSLEPEDFAVYYCSQWSGYPYTFGGGTKVEIK", "Value Units": "fold", "Recorded Result": 0.22}
{"Binder": "AME-18a (antibody, V domains shown, Tested as IgG; also called 130) VH: EVQLVESGGGLVQPGGSLRLSCAASGFQFSPFAMSWVRQAPGKGLEWVAKISPGGSWTYYSDTVTGRFTISRDNAKNSLYLQMNSLRAEDTAVYYCARQLWGYYALDIWGQGTTVTVSS VL: EIVLTQSPATLSLSPGERATLSCSASSSVSYMYWYQQKPGQAPRLLIYDFSNLASGIPARFSGSGSGTDFTLTISSLEPEDFAVYYCMQWSGYPYTFGGGTKVEIK", "Value Units": "fold", "Recorded Result": 4.4}
{"Binder": "AME-22a (antibody, V domains shown, Tested as IgG; also called 150) VH: EVQLVESGGGLVQPGGSLRLSCAASGFQFSPFAMSWVRQAPGKGLEWVAKISPGGSWTYYPDTDTGRFTISRDNAKNSLYLQMNSLRAEDTAVYYCARQLWGYYALDFWGQGTTVTVSS VL: EIVLTQSPATLSLSPGERATLSCSASYSVSYMYWYQQKPGQAPRLLIYDFSNLASGIPARFSGSGSGTDFTLTISSLEPEDFAVYYCMQWSGYPYTFGGGTKVEIK", "Value Units": "fold", "Recorded Result": 1.3}
{"Binder": "AME-19a (antibody, V domains shown, Tested as IgG; also called 136; human engineered anti-IL-6 (clone AME-19a) antibody) VH: EVQLVESGGGLVQPGGSLRLSCAASGFTFSPFAMSWVRQAPGKGLEWVAKISPGGSWTYYSDTVTGRFTISRDNAKNSLYLQMNSLRAEDTAVYYCARQLWGYYALDIWGQGTTVTVSS VL: EIVLTQSPATLSLSPGERATLSCSASISVSYMYWYQQKPGQAPRLLIYDMSNLASGIPARFSGSGSGTDFTLTISSLEPEDFAVYYCMQWSGYPYTFGGGTKVEIK", "Value Units": "fold", "Recorded Result": 1.2}
{"Binder": "AME-23a (antibody, V domains shown, Tested as IgG; also called 143) VH: EVQLVESGGGLVQPGGSLRLSCAASGFQFSSFAMSWVRQAPGKGLEWVAKISPGGSYTYYSDTVTGRFTISRDNAKNSLYLQMNSLRAEDTAVYYCARQLWGYYALDFWGQGTTVTVSS VL: EIVLTQSPATLSLSPGERATLSCSASYSVSYMYWYQQKPGQAPRLLIYDMSNLASGIPARFSGSGSGTDFTLTISSLEPEDFAVYYCMQWSGYPYTFGGGTKVEIK", "Value Units": "fold", "Recorded Result": 1.6}
